Test system: Streptococcus Pneumonia GYR 1171
Assay: In vitro antibacterial activity, agar dilution MIC
Assay type: cell-based
Settings: code YY, BHI agar, 35-37° C., 20-24 hours, unit assumed
Metric: Antibacterial Activity (MIC's) (µg/mL)
// return numeric value only (unit: µg/mL, not printed)

Query: Fill in Antibacterial Activity (MIC's) for record CCC1OC(=O)CC(=O)C(C)C(OC2OC(C)CC(N(C)C)C2O)C(C)(OCC=Cc2cnc3ccccc3c2)CC(C)C(=O)C(C)C2NC(=O)OC12C (centres unmarked)
Response: 0.03

Query: State its Antibacterial Activity (MIC's): CCC1OC(=O)C(CC(C(=O)OC)C(=O)OC)C(=O)C(C)C(OC2OC(C)CC(N(C)C)C2O)C(C)(OCC=Cc2cnc3ccccc3c2)CC(C)C(=O)C(C)C2NC(=O)OC12C (centres unmarked)
Response: 0.03

Query: Give recorded Antibacterial Activity (MIC's). CCC1OC(=O)C(CS(=O)(=O)O)C(=O)C(C)C(OC2OC(C)CC(N(C)C)C2O)C(C)(OCC=Cc2cnc3ccccc3c2)CC(C)C(=O)C(C)C2NC(=O)OC12C (centres unmarked)
Response: 0.125

Query: Tell me Antibacterial Activity (MIC's) reported for CC[C@H]1OC(=O)[C@H](C)[C@@H](O[C@H]2C[C@@](C)(OC)[C@@H](O)[C@H](C)O2)[C@H](C)[C@@H](O[C@@H]2O[C@H](C)C[C@H](N(C)C)[C@H]2O)[C@](C)(O)C[C@@H](C)C(=O)[C@H](C)[C@@H](O)[C@]1(C)O [Ery. A, Erythromycin A, reference compound]
Response: 0.06

Query: Dear colleague, please send me the reported Antibacterial Activity (MIC's) for C=CCC1C(=O)OC(CC)C2(C)OC(=O)NC2C(C)C(=O)C(C)CC(C)(OCC=Cc2cnc3ccccc3c2)C(OC2OC(C)CC(N(C)C)C2O)C(C)C1=O (centres unmarked) when you can.
Response: 32
